Tested on: Human plasma stability, percent remaining
Test: compound stability in Homo sapiens plasma, ADME assay, biochemical, second set (AID 624420)
Settings: at 1 µM
Label criterion met when plasma stability is at or above 90%; anything below gets criterion not met.

Before answering, review these 5 worked examples.
CN(C)c1nc(N)nc(CSc2nnnn2-c2cccc3ccccc23)n1 :: criterion met
O=C(O)c1ccccc1OCc1ccccc1Br :: criterion not met
NC(=O)C1CCN(c2nc(-c3ccc(Br)cc3)cs2)CC1 :: criterion met
CCOc1ccc(NC(=S)N2CCC(C(O)(c3ccccc3)c3ccccc3)CC2)cc1 :: criterion not met
O=C1C2CC=CCC2C(=O)N1c1n[nH]c(-c2ccccc2)n1 (configuration not stated) :: criterion not met

API: the following record is the query input.
Data request: Is it the case that CC(C)C(=O)NC(c1ccco1)c1ccc2cccnc2c1O (configuration not stated) has plasma stability reaching or exceeding 90%?
Data returned: criterion met

###

Test system: Human plasma stability, percent remaining
Experiment: compound stability in Homo sapiens plasma, ADME assay, biochemical, second set (AID 624420)
Details: at 1 µM
Recorded plasma stability for the following compounds
Hi! Could you send only the number? It should be in %, unit omitted.

# annotated cases, reported plasma stability shown
CC(=O)c1ccc(N2CCN(S(=O)(=O)c3ccc4c(c3)CC(=O)N4)CC2)cc1 :: 80.6
Cc1ccc(S(=O)(=O)C(c2ccccc2)c2c(C)noc2C)cc1 (stereo not given) :: 91.9

Data request: Which plasma stability is listed for Cc1ccccc1N1CCN(c2ncnc3c2cnn3Cc2ccc(Cl)cc2)CC1 ?
Data returned: 88.2

Data request: Ok, now COc1ccc(Sc2ccc(NC(=O)c3ccccc3Cl)cc2C#N)cc1
Data returned: 91.9

Data request: Ok, now Cc1ccc(-n2c(N)c(C#N)c(-c3ccccc3)c(C#N)c2=O)cc1
Data returned: 99.8

Data request: Ok, now Cc1ccnc(NC(=O)CCCOc2cc(=O)n(C)c3ccccc23)c1
Data returned: 100

Data request: Ok, now COc1nc(-c2ccccc2)nnc1-c1ccccc1
Data returned: 100

###

System: Human plasma stability, percent remaining
Assay: compound stability in Homo sapiens plasma, ADME assay, biochemical, second set (AID 624420)
Settings: at 1 µM
Label Condition met when plasma stability is at or above 90%; anything below gets Condition not met.

CSc1nc(-c2ccc(C)cc2)nc(C(Cl)Cl)n1 :: Condition not met
O=C1NCCCc2c1oc1ccc(O)cc21 :: Condition met

Data request: Is it the case that Cc1ccc(NC(=O)CCC(=O)N/N=C/c2ccc([N+](=O)[O-])o2)cc1C has plasma stability reaching or exceeding 90%?
Data returned: Condition not met

Data request: Ok, now CCCN(CCC)CCNC(=O)C1CCN(Cc2nc(-c3ccc(Cl)cc3)oc2C)CC1
Data returned: Condition met

Data request: Ok, now CCOC(=O)C(C)Oc1cccc2c(=O)n(CC(=O)Nc3ccc4c(c3)OCCO4)ccc12 (stereo unspecified)
Data returned: Condition not met

Data request: Ok, now COc1ccc(C2CC(c3ccccc3)=NN2c2ccc(S(N)(=O)=O)cc2)cc1 (stereo unspecified)
Data returned: Condition not met

Data request: Ok, now COc1ccc(CSc2nc(C)cc(=O)[nH]2)cc1
Data returned: Condition met

Data request: Ok, now Cc1cccc(-n2cnc3cc(C(=O)N4CCCCC4)ccc32)c1
Data returned: Condition not met

###

Recorded plasma stability for the following compounds
Test system: Human plasma stability, percent remaining
Assay: compound stability in Homo sapiens plasma, ADME assay, biochemical, second set (AID 624420)
Conditions: at 1 µM
Hi! Could you send only the number? It should be in %, unit omitted.

# annotated cases, reported plasma stability shown
O=[N+]([O-])c1ccc(CN2CCOCCOCCN(Cc3ccc([N+](=O)[O-])cc3)CCOCC2)cc1 :: 98.3
O=C(c1ccccn1)N(Cc1cccs1)C1(C(=O)NC2CCCCC2)CCCCC1 :: 96.7
CCCc1nc2c(=O)n(C)c(=O)nc-2n(C)n1 :: 1.52

// below: plasma stability requested for another compound
Data request: Give Human plasma stability, percent remaining plasma stability for CCN1CCN(c2nc3ccccc3nc2C(C#N)C(=O)OC2CCCCC2)CC1 (stereo not given)
Data returned: 100

###

Tested on: Human plasma stability, percent remaining
Test: compound stability in Homo sapiens plasma, ADME assay, biochemical, second set (AID 624420)
Conditions: at 1 µM
value-kind: plasma stability (%)
Hi! Could you send only the number? It should be in %, unit omitted.

# annotated cases, reported plasma stability shown
O=C(O)CCC(NS(=O)(=O)c1ccc(-c2ccccc2)cc1)C(=O)O (stereo unspecified) :: 57
COc1ccc(S(=O)(=O)n2nc(OC(=O)c3ccccc3)cc2N)cc1 :: 0.3
Cc1ccc(S(=O)(=O)n2c(N)nc3ccccc32)cc1 :: 95.8
O=S(=O)(NC1CCCCC1N1CCOCC1)c1ccc(Cl)cc1 (stereo unspecified) :: 100
O=C(CSc1cccc2cccnc12)N1CCCC1 :: 99.3

// below: plasma stability requested for another compound
Data request: Which plasma stability is listed for CC1CCCN(C(C(=O)Nc2ccc3c(c2)OCCO3)c2ccccc2)C1 (stereo unspecified) ?
Data returned: 100

###

Test system: Human plasma stability, percent remaining
Assay: compound stability in Homo sapiens plasma, ADME assay, biochemical, second set (AID 624420)
Details: at 1 µM
value-kind: plasma stability (%)
Hi! Could you send only the number? It should be in %, unit omitted.

# annotated cases, reported plasma stability shown
COc1ccc(OC)c(S(=O)(=O)Nc2cnc3ccccc3c2)c1 :: 83
N#Cc1ccccc1CSc1nc2ncc(Br)cc2[nH]1 :: 95.4

Data request: Which plasma stability is listed for Cc1ccc(C)c(NS(=O)(=O)c2cc(C(=O)Nc3ccccc3-c3ccccc3)ccc2Cl)c1 ?
Data returned: 100

Data request: Ok, now COc1ccccc1N(/N=C1\Sc2ccccc2C1=O)C(C)=O
Data returned: 94.1

Data request: Ok, now CCCc1cc(C(=O)N(C2CCCCC2)C2CCCCC2)no1
Data returned: 67.4

Data request: Ok, now CCCOc1ccc(-c2nc(OC)c3ccccc3n2)cc1
Data returned: 100

###

Tested on: Human plasma stability, percent remaining
Assay: compound stability in Homo sapiens plasma, ADME assay, biochemical, second set (AID 624420)
Conditions: at 1 µM
value-kind: plasma stability

CCc1oc2ccccc2c1C(=O)c1cc(Br)c(O)c(Br)c1 :: 94.6%
COc1cccc(-c2nc(-c3ccc(NC(=O)Cc4ccccc4OC)cc3)no2)c1 :: 100%
Brc1cc2c(cc1C1Nc3ccccc3C3C=CCC31)OCO2 (stereo not drawn) :: 97%
O=C(COC(=O)C12CC3CC(CC(C3)C1)C2)NCc1ccco1 :: 58.7%
Cn1nnnc1Sc1ncnc2scc(-c3ccccc3)c12 :: 76.8%

Data request: Which plasma stability is listed for C/C=C/Cn1c(SCCCc2ccccc2)nc2c1c(=O)[nH]c(=O)n2C ?
Data returned: 98.5%

Data request: Ok, now O=c1[nH]c2c(s1)C(c1cccnc1)C1C3CCC(C3)C1S2 (stereo not drawn)
Data returned: 86.8%

Data request: Ok, now c1ccc(-c2nnc(N3CCOCC3)nc2-c2ccccc2)cc1
Data returned: 100%

###

Tested on: Human plasma stability, percent remaining
Assay: compound stability in Homo sapiens plasma, ADME assay, biochemical, second set (AID 624420)
Settings: at 1 µM
Recorded plasma stability for the following compounds
The answer should read as a number with its unit following.

Cc1ccc(C(=O)n2c3ccccc3c3ccccc32)cc1 :: 92%
O=C(COc1ccccc1Br)NCCc1nc2ccccc2[nH]1 :: 88%

// below: plasma stability requested for another compound
Data request: Which plasma stability is listed for CCCC(=O)Nc1cccc(NC(=O)c2ccccc2Br)c1 ?
Data returned: 87.8%

###

System: Human plasma stability, percent remaining
Test: compound stability in Homo sapiens plasma, ADME assay, biochemical, second set (AID 624420)
Settings: at 1 µM
Recorded plasma stability for the following compounds
Hi! Could you send only the number? It should be in %, unit omitted.

O=C(CCNS(=O)(=O)c1cccc2nsnc12)N1CCN(c2ccccn2)CC1 :: 91.2
COc1ccc(CNCc2cccc3ccccc23)cc1 :: 92.1
COc1ccc(S(=O)(=O)N2CCN(S(=O)(=O)c3ccc4c(c3)OCCO4)CC2)cc1 :: 96.4

Data request: Which plasma stability is listed for O=S1(=O)Nc2c(ccc3cccnc23)-c2ccccc21 ?
Data returned: 100

Data request: Ok, now CC[C@H]1CN2CCc3cc(OC)c(OC)cc3[C@@H]2C[C@@H]1C[C@H]1NCCc2cc(OC)c(OC)cc21
Data returned: 91.5

Data request: Ok, now CN(C)c1oc(-c2ccc(OCc3ccc(Cl)cc3)cc2)nc1C#N
Data returned: 94.3

###

Recorded plasma stability for the following compounds
Tested on: Human plasma stability, percent remaining
Assay: compound stability in Homo sapiens plasma, ADME assay, biochemical, second set (AID 624420)
Settings: at 1 µM
Hi! Could you send only the number? It should be in %, unit omitted.

# annotated cases, reported plasma stability shown
O=C(O)c1ccc(N2C(=O)/C(=C/c3ccc(-c4ccc([N+](=O)[O-])cc4)o3)C=C2c2ccccc2)cc1 :: 87.3
COc1ccc(OC)c(-c2nnc3n2N=C(c2ccc(OC)c(OC)c2)CS3)c1 :: 100
CCOc1ccc(-c2nc(-c3ccncc3)no2)cc1OCC :: 100

Data request: Which plasma stability is listed for CN(C)C1=C(Cl)C(=O)N(c2ccc(Cl)c(Cl)c2)C1=O ?
Data returned: 0.83

Data request: Ok, now CCCn1ncc(CN2CCCC(C(=O)c3cccc(OC(C)C)c3)C2)c1C (stereo not given)
Data returned: 100

Data request: Ok, now O=C(O)c1cccnc1SCCc1ccccc1
Data returned: 88.3

Data request: Ok, now Cc1cc(C(=O)CN2C(=O)CCC2=O)c(C)n1Cc1ccccc1
Data returned: 84

Data request: Ok, now Brc1ccc2c(c1)CN1CCCC1=N2
Data returned: 100

Hey, just so you know, these numbers are from PubChem BioAssay AID624420.
